meta.source: PubChem BioAssay

# Assay: probe aXIP binding to arrayed compounds – biochemical, NeuroSMM set, 635/667 nm fluorescence, primary screen (AID 1119);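 also: probe is the protein aXip251-270 applied at 1 µg/mL to compound-printed slides; binding of probe to printed compounds measured as 667 nm fluorescence plus signal to noise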
# Measurement Setup: small-molecule microarray, higher = more signal, called active from +8 up or from −8 down
Assay Endpoint: composite Z-score

C=CCNC(=O)[C@@H]1[C@H]2C(=O)O[C@H](c3ccccc3)[C@H](c3ccccc3)N2[C@H](c2ccc(OCCO)cc2)[C@@]12C(=O)N(C(=O)OCCOC)c1ccc(C#CCC(C(=O)OC)C(=O)OC)cc12
0.0558
COCCCNC(=O)[C@@]1(Cc2ccccc2)N=C(c2ccc(OCCCO)cc2)O[C@H]1c1ccccc1CN=[N+]=[N-]
0.294
COc1cc2c(cc1OC)CN(C(=O)[C@H]1[C@@H]3C(=O)O[C@@H](c4ccccc4)[C@@H](c4ccccc4)N3[C@@H](c3ccccc3OCCO)[C@]13C(=O)Nc1ccc(C#CCCO)cc13)CC2
0.397
CCOC(=O)[C@H]1C/C=C/C[C@H](C(=O)OCC)C(=O)O[C@H]2[C@@H](OC)O[C@H](CO)[C@@H](OC(=O)c3ccc(Br)cc3)[C@@H]2OC1=O
0.38
[N-]=[N+]=Nc1ccccc1C[C@]1(C(=O)NCc2ccccc2)N=C(c2ccc(OCCCO)cc2)O[C@H]1c1ccccc1N=[N+]=[N-]
0.411
O=C1O[C@@H](c2ccccc2)[C@@H](c2ccccc2)N2[C@@H](c3ccccc3OCCO)[C@]3(C(=O)Nc4ccccc43)[C@@H](C(=O)O)[C@H]12
-0.0247
